Where do the numbers come from? From PubChem BioAssay.

Assay: MRP1 drug-resistance reversers in H69AR cells – cell-based, doxorubicin co-treatment, pilot screen (AID 601)
Conditions: H69AR cells, CellTiter-Glo, 72 h; compound alone cytotoxicity; at 10 µM
# note: exactly 90% is not below, so it is Not fulfilled; use Fulfilled for viability strictly under it

Find out if reported viability for O=C(CC1Oc2ccccc2NC1=O)NCCCN1CCOCC1 (configuration not stated) is less than 90%
Not fulfilled

Report whether reported viability is lower than 90% (strictly) for `Cc1nnc(SCC(=O)NCc2ccccc2)s1`
Not fulfilled

I'd appreciate it if you could check whether Oc1c(C(c2ccccc2)N2CCc3ccccc3C2)sc2ncnn12 (configuration not stated) has viability smaller than 90%.
Fulfilled

In the record for CCOC(=O)C(CC)Sc1ncnc2nc[nH]c12 (configuration not stated) , is viability less than 90%?
Not fulfilled

Threshold test, viability < 90%: `O=C(c1cccc(F)c1)N1CCc2ccccc21`
Not fulfilled

Below 90% on viability? Entry `Cc1ccc(C)c2[nH]c(=O)c(CCNC(=O)c3ccc(S(=O)(=O)N(C)C)cc3)cc12`
Fulfilled

Lab note: confirm whether the reported viability for this compound is below 90%, equality not counting. compound: `O=C(c1ccc(Cl)s1)N1CCN(c2nc3ccccc3s2)CC1`
Fulfilled

Given `Oc1ccc2ccccc2c1CN1CCN(c2ccccc2F)CC1` , is recorded viability strictly lower than 90%?
Fulfilled
